- measuredOn: T1, rHuman EGF R/Fc Chimera, CF (human, UniProt P00533 25-645)
- T1 construct: Bought from R&D Systems; also called epidermal growth factor receptor; not shown: Fc of the bought chimera
- testMethodNotes: ECL Multispot (MSD) assay; antigen spotted on plate, Fab in solution;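 also: fab bound 1 h at 20 °C, detected by TAG-labelled antibody electrochemiluminescence, signal relative to each well's blank, ratio of 4 or more marks a hit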
measuredParameter: ECL signal
Lab note: record just the number, no unit beside it.

Fab VH1-46_IGHD6-6*01_IGHJ1*01 S102A/S103P/S104F/H111F (APFF) & L6_IGKJ1*01 S28T (Fab, V domains shown, Fab made in E. coli; the variable domains were cloned into Plasmid A (CH1, His and Flag tags) and Plasmid C (kappa CL); also called APFF / S28T) VH: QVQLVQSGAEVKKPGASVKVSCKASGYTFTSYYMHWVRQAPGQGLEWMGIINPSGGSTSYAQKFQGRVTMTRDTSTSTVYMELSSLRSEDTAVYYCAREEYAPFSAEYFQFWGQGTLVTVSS VL: EIVLTQSPATLSLSPGERATLSCRASQTVSSYLAWYQQKPGQAPRLLIYDASNRATGIPARFSGSGSGTDFTLTISSLEPEDFAVYYCQQRSNWPPWTFGQGTKVEIKR | 321

Return the recorded ECL signal value; entry: Fab VH1-46_IGHD6-6*01_IGHJ1*01 S102A/S103P/S104F/H111F (APFF) & L6_IGKJ1*01 S28F (Fab, V domains shown, Fab made in E. coli; the variable domains were cloned into Plasmid A (CH1, His and Flag tags) and Plasmid C (kappa CL); also called APFF / S28F) VH: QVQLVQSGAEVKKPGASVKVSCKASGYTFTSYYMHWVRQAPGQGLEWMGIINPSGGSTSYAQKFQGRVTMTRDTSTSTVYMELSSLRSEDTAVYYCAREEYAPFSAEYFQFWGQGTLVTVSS VL: EIVLTQSPATLSLSPGERATLSCRASQFVSSYLAWYQQKPGQAPRLLIYDASNRATGIPARFSGSGSGTDFTLTISSLEPEDFAVYYCQQRSNWPPWTFGQGTKVEIKR
283
